Each recorded value in this set is attributed to patent US20220281819A1.

This listing pairs compounds with measured IC50.
- test system: TEAD1 (Homo sapiens, UniProt P28347)
- Sequence (P28347 whole entry, species assumed): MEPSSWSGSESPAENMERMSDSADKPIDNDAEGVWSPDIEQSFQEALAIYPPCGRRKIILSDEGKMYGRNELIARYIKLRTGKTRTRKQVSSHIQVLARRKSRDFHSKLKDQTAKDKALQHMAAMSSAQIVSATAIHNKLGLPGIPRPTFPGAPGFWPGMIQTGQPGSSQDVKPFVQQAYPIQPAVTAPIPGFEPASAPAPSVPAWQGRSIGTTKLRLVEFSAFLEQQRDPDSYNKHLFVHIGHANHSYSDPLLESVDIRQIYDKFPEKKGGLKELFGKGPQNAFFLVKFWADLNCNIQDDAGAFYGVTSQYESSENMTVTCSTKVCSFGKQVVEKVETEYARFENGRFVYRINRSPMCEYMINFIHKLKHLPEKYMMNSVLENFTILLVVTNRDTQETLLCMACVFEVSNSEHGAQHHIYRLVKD
- measurement notes: Lipid HTRF (TR-FRET lipid pocket probe competition), 30 min pre-incubation, TEAD1
- Format: binding
- condition set: His-tagged TEAD1, 30 minutes pre-incubation with compound at room temperature; read-out: Lipid HTRF TEAD1 IC50
measurement kind: IC50 (µM)

compound="C=CC(=O)Nc1cc2c(c(CO[C@H]3CC[C@H](C(F)(F)F)CC3)c1)OCC2 [Final product from Example 34]" test_system="TEAD1 (Homo sapiens, UniProt P28347)" measurement_kind=IC50 measurement_unit=µM value_measured=2.4
compound="C=CC(=O)Nc1cc(/C=C/[C@H]2CC[C@H](C(F)(F)F)CC2)c(OC)c(C)n1 [Final product from Example 8]" test_system="TEAD1 (Homo sapiens, UniProt P28347)" measurement_kind=IC50 measurement_unit=µM value_measured=0.04
compound="C=CC(=O)Nc1ncc(OC)c(/C=C/C2CCC(F)(F)CC2)n1 [Final product from Example 27]" test_system="TEAD1 (Homo sapiens, UniProt P28347)" measurement_kind=IC50 measurement_unit=µM value_measured=0.2
compound="C=CC(=O)N(CCO)c1cc(/C=C/C2CCC(F)(F)CC2)c2c(c1)CCO2 [Final product from Example 36]" test_system="TEAD1 (Homo sapiens, UniProt P28347)" measurement_kind=IC50 measurement_unit=µM value_measured=17

----------
- test system: TEAD3 (Homo sapiens, UniProt Q99594)
- Sequence (Q99594 whole entry, species assumed): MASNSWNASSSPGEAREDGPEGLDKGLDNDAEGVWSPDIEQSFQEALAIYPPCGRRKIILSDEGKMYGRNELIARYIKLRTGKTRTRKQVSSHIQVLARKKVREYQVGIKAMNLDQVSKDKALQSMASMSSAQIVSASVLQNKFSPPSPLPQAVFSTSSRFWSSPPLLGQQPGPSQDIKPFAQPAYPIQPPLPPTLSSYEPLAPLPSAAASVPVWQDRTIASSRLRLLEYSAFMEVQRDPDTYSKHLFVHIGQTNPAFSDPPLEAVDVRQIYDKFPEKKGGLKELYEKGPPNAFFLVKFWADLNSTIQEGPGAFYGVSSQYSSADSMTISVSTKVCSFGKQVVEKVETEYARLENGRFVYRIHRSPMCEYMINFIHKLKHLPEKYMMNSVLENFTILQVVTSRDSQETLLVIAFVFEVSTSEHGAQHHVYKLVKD
- measurement notes: Lipid HTRF (TR-FRET lipid pocket probe competition), 30 min pre-incubation, TEAD3
- Format: binding
- condition set: His-tagged TEAD3, 30 minutes pre-incubation with compound at room temperature; read-out: Lipid HTRF TEAD3 IC50
pIC50: −log10 of the molar value.
This listing pairs molecules with measured pIC50.
measurement kind: pIC50

molecule="C=CC(=O)Nc1cc(/C=C/C2CCC(F)(F)CC2)c2c(c1)CC(C)O2 (single isomer, unassigned) [Enantiomer D from Example 35]" measurement_kind=pIC50 reported_relation== value_measured=7.05
molecule="COc1ncc(NC(=O)/C=C/C#N)cc1/C=C/C1CCC(F)(F)CC1 [Final product from Example 21]" measurement_kind=pIC50 reported_relation== value_measured=6.80
molecule="C=CC(=O)Nc1cc(-c2ccc(C(C)C)cc2)c(OC)cc1F [Final product from Example 16]" measurement_kind=pIC50 reported_relation== value_measured=7.05
molecule="C=CC(=O)Nc1cc(/C=C/[C@H]2CC[C@H](C(F)(F)F)CC2)c(OC)nc1-c1ccccc1 [Final product from Example 24]" measurement_kind=pIC50 reported_relation=< value_measured=4.30
molecule="C=CC(=O)Nc1cnc(OC)c(COC2CCC(F)(F)CC2)c1 [Final product from Example 10]" measurement_kind=pIC50 reported_relation== value_measured=5.08
molecule="CC(C)c1ccc(-c2cc(N(C)C(=O)NC#N)c(C#N)c3c2OCC3)cc1 [Final product from Example 47]" measurement_kind=pIC50 reported_relation== value_measured=4.52
molecule="CC(C)c1ccc(-c2cc(NC(=O)C3(C)CO3)c(C#N)c3c2OCC3)cc1 (single isomer, unassigned) [Enantiomer B from Example 43]" measurement_kind=pIC50 reported_relation== value_measured=5.89

----------
- test system: TEAD1 (Homo sapiens, UniProt P28347)
- measurement notes: Lipid HTRF (TR-FRET lipid pocket probe competition), 30 min pre-incubation, TEAD1
- Assay type: binding
- condition set: His-tagged TEAD1, 30 minutes pre-incubation with compound at room temperature; read-out: Lipid HTRF TEAD1 IC50
The label is class 1 for IC50 below 0.08 µM and class 0 for IC50 equal to or exceeding 0.08 µM.

molecule="C=CC(=O)Nc1cnc2ccnc(O[C@H]3CC[C@H](C(F)(F)F)CC3)c2c1 [Final product from Example 39]" category="class 1"
molecule="C=CC(=O)Nc1cc(/C=C/C2CCC(F)(F)CC2)c(OC)cn1 [Final product from Example 7]" category="class 1"
molecule="C=CC(=O)Nc1cnc(OC)c(/C=C/[C@H]2CC[C@H](C(F)(F)F)CC2)c1 [Final product from Example 2]" category="class 0"
molecule="C=CC(=O)Nc1cnc(OC)c(-c2ccc(C(C)C)cc2)c1 [Final product from Example 41]" category="class 0"
molecule="CC(C)c1ccc(-c2cc(NC(=O)[C@@H]3CO3)c(C#N)c3c2OCC3)cc1 [Final product from Example 44]" category="class 1"
molecule="C=CC(=O)Nc1cc(/C=C/[C@H]2CC[C@H](C(F)(F)F)CC2)c(OC)c(C2CC2)n1 [Final product from Example 12]" category="class 0"
